- Protocol Notes: Gamma irradiation of compound (I) in different containers, amounts of (I) and breakdown products by HPLC
- Format: physicochemical
- Measurement Context: Glass/metal container, gamma dose 10 kGY
Quantity Name: amount of breakdown product (III) (%)
Hi! Could you send only the number? It should be in %, unit omitted.

Name the reported amount of breakdown product (III) value associated with the compound CCCCCCCCCCCCCCCC(=O)OC1CCCn2c1nc(C)c(CCN1CCC(c3noc4cc(F)ccc34)CC1)c2=O (stereo not shown)
0.1

---

- Protocol Notes: Gamma irradiation of compound (I) in different containers, amounts of (I) and breakdown products by HPLC
- Assay type: physicochemical
- Measurement Context: Glass container, gamma dose 20 kGY
Quantity Name: amount of (I) (%)
Please reply with the bare figure in % and do not write the unit itself.

Looking for the measured amount of (I) of CCCCCCCCCCCCCCCC(=O)OC1CCCn2c1nc(C)c(CCN1CCC(c3noc4cc(F)ccc34)CC1)c2=O (stereo not shown) , can you help?
98.3

---

- Protocol Notes: Gamma irradiation of compound (I) in different containers, amounts of (I) and breakdown products by HPLC
- Type: physicochemical
- Measurement Context: Glass container, gamma dose 10 kGY
Quantity Name: amount of breakdown products (II) [sum of (II-a) and (II-b)] (%)
Kindly answer with a numeric value in %, unit omitted.

Given the entry CCCCCCCCCCCCCCCC(=O)OC1CCCn2c1nc(C)c(CCN1CCC(c3noc4cc(F)ccc34)CC1)c2=O (stereo not shown) , report its measured amount of breakdown products (II) [sum of (II-a) and (II-b)].
0.05

---

- Protocol Notes: Gamma irradiation of compound (I) in different containers, amounts of (I) and breakdown products by HPLC
- Assay type: physicochemical
- Measurement Context: Glass container, gamma dose 25 kGY
Quantity Name: amount of breakdown product (III)
Express your answer as a number followed by its unit.

Which measured amount of breakdown product (III) value corresponds to CCCCCCCCCCCCCCCC(=O)OC1CCCn2c1nc(C)c(CCN1CCC(c3noc4cc(F)ccc34)CC1)c2=O (stereo not shown) ?
0.36%

---

- Protocol Notes: Gamma irradiation of compound (I) in different containers, amounts of (I) and breakdown products by HPLC
- Type: physicochemical
- Measurement Context: Glass container, gamma dose 5 kGY
- Description: During pharmaceutical development, aseptic formulations of paliperidone palmitate (I) were initially obtained by gamma irradiation. Compound (I) was irradiated with various doses of gamma rays in different containers.
Quantity Name: amount of breakdown product (III) (%)
Answer with a number only, understood to be in %.

Look at this compound and give its reported amount of breakdown product (III). CCCCCCCCCCCCCCCC(=O)OC1CCCn2c1nc(C)c(CCN1CCC(c3noc4cc(F)ccc34)CC1)c2=O (stereo not shown)
0.08

---

- Protocol Notes: Gamma irradiation of compound (I) in different containers, amounts of (I) and breakdown products by HPLC
- Type: physicochemical
- Measurement Context: Glass/metal container, gamma dose 15 kGY
Quantity Name: amount of breakdown product (III) (%)
Give the quantity in %, number only.

Would you mind telling me what amount of breakdown product (III) value was observed for CCCCCCCCCCCCCCCC(=O)OC1CCCn2c1nc(C)c(CCN1CCC(c3noc4cc(F)ccc34)CC1)c2=O (stereo not shown) [(I)] ?
0.23

---

- Protocol Notes: Gamma irradiation of compound (I) in different containers, amounts of (I) and breakdown products by HPLC
- Format: physicochemical
- Measurement Context: Plastic container, gamma dose 25 kGY
Quantity Name: amount of (I) (%)
Please give a number only; it is taken to be in %.

May I ask what amount of (I) has been recorded for CCCCCCCCCCCCCCCC(=O)OC1CCCn2c1nc(C)c(CCN1CCC(c3noc4cc(F)ccc34)CC1)c2=O (stereo not shown) [(I)] ?
97.2

---

- Protocol Notes: Gamma irradiation of compound (I) in different containers, amounts of (I) and breakdown products by HPLC
- Assay type: physicochemical
- Measurement Context: Glass/metal container, gamma dose 30 kGY
Quantity Name: amount of breakdown products (II) [sum of (II-a) and (II-b)] (%)
Enter your answer as a number in %; do not include the unit.

So what does the record say about amount of breakdown products (II) [sum of (II-a) and (II-b)] for CCCCCCCCCCCCCCCC(=O)OC1CCCn2c1nc(C)c(CCN1CCC(c3noc4cc(F)ccc34)CC1)c2=O (stereo not shown) ?
0.21

---

- Protocol Notes: Gamma irradiation of compound (I) in different containers, amounts of (I) and breakdown products by HPLC
- Type: physicochemical
- Measurement Context: Plastic container, gamma dose 15 kGY
Quantity Name: amount of (I) (%)
Give just the numeric value; % need not be written.

Please report the recorded amount of (I) for CCCCCCCCCCCCCCCC(=O)OC1CCCn2c1nc(C)c(CCN1CCC(c3noc4cc(F)ccc34)CC1)c2=O (stereo not shown) [(I)] .
98.3

---

- Protocol Notes: Gamma irradiation of compound (I) in different containers, amounts of (I) and breakdown products by HPLC
- Assay type: physicochemical
- Measurement Context: Plastic container, gamma dose 20 kGY
Quantity Name: amount of breakdown products (II) [sum of (II-a) and (II-b)] (%)
Report only the number, with the unit % understood.

Return reported amount of breakdown products (II) [sum of (II-a) and (II-b)]; argument: CCCCCCCCCCCCCCCC(=O)OC1CCCn2c1nc(C)c(CCN1CCC(c3noc4cc(F)ccc34)CC1)c2=O (stereo not shown) [(I)]
0.03

---

- Protocol Notes: Gamma irradiation of compound (I) in different containers, amounts of (I) and breakdown products by HPLC
- Assay type: physicochemical
- Measurement Context: Glass/metal container, gamma dose 10 kGY
Quantity Name: amount of (I)
Reply with the number, then its unit.

Given CCCCCCCCCCCCCCCC(=O)OC1CCCn2c1nc(C)c(CCN1CCC(c3noc4cc(F)ccc34)CC1)c2=O (stereo not shown) [(I)] , state its recorded amount of (I).
98.9%
